Task for the reader: assign each of the following binders its reported KD mutant/KD wt.
# MEASUREMENT_TARGET: T1, human TGFβ1 (human, UniProt P01137 279-390)
# T1 construct: also called TGFβ1 homodimer
# T1 sequence (P01137 279-390 limits assumed): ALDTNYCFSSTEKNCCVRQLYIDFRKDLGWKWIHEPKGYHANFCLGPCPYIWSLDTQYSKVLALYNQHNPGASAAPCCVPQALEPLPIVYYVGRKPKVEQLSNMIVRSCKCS
# EXPERIMENT_NOTES: Biacore, 3.33-90 nM, 1:1 global fit, vs wt GC1008
// no unit, no text: just the number

Task: Look up KD mutant/KD wt of N32E (antibody, V domains shown, GC1008 IgG4 variant) VH: QVQLVQSGAEVKKPGSSVKVSCKASGYTFSSEVISWVRQAPGQGLEWMGGVIPIVDIANYAQRFKGRVTITADESTSTTYMELSSLRSEDTAVYYCASTLGLVLDAMDYWGQGTLVTVSS VL: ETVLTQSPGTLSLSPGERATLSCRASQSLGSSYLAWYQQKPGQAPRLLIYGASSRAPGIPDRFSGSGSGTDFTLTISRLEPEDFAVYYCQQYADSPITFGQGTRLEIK and report it.
Result: 1

Task: Provide KD mutant/KD wt value for the following binder: E74L (antibody, V domains shown, GC1008 IgG4 variant) VH: QVQLVQSGAEVKKPGSSVKVSCKASGYTFSSNVISWVRQAPGQGLEWMGGVIPIVDIANYAQRFKGRVTITADLSTSTTYMELSSLRSEDTAVYYCASTLGLVLDAMDYWGQGTLVTVSS VL: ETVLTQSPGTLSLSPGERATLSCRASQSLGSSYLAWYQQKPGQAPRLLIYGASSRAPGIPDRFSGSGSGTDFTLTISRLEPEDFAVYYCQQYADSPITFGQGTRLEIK
Result: 0.9

Task: Identify measured KD mutant/KD wt associated with E74W (antibody, V domains shown, GC1008 IgG4 variant) VH: QVQLVQSGAEVKKPGSSVKVSCKASGYTFSSNVISWVRQAPGQGLEWMGGVIPIVDIANYAQRFKGRVTITADWSTSTTYMELSSLRSEDTAVYYCASTLGLVLDAMDYWGQGTLVTVSS VL: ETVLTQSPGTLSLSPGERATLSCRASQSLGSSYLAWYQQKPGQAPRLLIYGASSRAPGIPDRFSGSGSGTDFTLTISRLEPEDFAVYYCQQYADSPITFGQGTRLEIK
Result: 0.9

All figures here come from patent US20170342144A1.
